# test target: N-type calcium channel α1B (Cav2.2), β3 and α2δ subunits (Homo sapiens, UniProt Q00975)
# Sequence (Q00975 whole entry): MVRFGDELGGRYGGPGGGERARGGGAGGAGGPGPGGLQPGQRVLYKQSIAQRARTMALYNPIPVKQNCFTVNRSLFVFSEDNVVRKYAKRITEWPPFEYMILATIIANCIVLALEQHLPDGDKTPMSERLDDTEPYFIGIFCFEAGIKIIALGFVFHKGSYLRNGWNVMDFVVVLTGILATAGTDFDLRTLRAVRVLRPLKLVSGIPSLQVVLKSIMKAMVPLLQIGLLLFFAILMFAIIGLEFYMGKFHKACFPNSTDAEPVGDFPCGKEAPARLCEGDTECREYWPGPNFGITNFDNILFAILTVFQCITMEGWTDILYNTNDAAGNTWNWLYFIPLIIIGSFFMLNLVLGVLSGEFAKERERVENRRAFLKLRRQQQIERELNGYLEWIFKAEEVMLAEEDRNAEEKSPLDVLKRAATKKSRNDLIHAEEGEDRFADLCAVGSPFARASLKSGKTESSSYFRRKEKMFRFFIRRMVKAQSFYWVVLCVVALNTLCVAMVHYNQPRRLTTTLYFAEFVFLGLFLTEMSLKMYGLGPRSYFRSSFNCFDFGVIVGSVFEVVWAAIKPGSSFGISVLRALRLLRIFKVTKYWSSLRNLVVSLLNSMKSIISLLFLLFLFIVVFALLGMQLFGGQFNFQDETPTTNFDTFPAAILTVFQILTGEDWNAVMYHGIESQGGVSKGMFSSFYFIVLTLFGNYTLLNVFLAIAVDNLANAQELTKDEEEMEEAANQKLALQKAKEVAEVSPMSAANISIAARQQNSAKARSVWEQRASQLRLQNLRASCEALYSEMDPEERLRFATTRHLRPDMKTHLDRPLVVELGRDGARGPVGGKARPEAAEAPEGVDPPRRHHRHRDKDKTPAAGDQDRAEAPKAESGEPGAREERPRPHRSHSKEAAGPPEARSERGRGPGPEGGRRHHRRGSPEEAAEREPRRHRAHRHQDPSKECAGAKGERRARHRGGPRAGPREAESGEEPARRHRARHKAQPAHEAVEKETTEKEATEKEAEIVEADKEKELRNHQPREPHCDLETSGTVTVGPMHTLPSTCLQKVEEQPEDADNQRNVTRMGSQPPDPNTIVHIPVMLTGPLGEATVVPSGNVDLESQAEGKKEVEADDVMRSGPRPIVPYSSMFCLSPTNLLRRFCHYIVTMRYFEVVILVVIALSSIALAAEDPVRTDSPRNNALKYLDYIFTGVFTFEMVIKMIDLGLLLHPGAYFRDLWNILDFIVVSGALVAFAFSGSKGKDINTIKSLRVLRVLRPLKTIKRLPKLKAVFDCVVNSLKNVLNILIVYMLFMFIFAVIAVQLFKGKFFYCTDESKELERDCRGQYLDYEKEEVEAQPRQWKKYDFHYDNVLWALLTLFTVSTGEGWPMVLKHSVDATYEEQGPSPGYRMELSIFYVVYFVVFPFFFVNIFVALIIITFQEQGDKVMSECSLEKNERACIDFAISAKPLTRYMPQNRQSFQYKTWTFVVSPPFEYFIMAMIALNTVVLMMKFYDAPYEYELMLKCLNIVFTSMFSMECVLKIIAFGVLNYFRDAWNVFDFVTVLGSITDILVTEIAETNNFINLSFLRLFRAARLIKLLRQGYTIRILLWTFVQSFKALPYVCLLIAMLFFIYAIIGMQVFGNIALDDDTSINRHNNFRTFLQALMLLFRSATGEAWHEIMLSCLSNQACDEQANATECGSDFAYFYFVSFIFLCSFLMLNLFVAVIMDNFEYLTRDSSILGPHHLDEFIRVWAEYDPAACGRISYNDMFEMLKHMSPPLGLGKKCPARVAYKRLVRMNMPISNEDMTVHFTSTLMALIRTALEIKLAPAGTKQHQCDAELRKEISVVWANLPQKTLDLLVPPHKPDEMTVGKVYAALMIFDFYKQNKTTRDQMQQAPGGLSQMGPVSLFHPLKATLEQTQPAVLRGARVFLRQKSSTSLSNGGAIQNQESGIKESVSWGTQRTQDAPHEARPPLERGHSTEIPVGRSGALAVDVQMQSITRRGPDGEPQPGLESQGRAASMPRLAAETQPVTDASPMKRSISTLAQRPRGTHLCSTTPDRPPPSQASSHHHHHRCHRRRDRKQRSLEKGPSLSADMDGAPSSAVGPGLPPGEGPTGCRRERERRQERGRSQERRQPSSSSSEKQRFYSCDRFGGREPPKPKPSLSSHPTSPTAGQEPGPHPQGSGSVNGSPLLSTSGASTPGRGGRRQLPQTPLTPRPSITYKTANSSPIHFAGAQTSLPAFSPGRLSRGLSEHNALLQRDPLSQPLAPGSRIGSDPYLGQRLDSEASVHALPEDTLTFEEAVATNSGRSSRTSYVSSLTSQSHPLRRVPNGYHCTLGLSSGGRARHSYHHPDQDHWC
# Sequence (P54284 whole entry partner): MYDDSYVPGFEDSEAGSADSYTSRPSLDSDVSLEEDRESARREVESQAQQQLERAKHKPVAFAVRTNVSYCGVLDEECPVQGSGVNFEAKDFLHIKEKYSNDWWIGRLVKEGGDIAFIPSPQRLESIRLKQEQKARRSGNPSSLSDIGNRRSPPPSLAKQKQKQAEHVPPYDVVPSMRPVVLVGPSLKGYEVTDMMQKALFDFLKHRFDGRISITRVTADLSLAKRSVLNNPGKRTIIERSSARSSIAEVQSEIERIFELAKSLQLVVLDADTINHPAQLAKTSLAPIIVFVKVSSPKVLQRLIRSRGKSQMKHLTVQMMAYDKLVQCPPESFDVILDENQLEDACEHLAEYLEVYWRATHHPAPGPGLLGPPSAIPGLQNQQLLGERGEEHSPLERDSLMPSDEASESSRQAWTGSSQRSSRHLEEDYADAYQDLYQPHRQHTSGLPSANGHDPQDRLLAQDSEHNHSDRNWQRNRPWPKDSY
# Sequence (P54289 25-956 partner limits assumed): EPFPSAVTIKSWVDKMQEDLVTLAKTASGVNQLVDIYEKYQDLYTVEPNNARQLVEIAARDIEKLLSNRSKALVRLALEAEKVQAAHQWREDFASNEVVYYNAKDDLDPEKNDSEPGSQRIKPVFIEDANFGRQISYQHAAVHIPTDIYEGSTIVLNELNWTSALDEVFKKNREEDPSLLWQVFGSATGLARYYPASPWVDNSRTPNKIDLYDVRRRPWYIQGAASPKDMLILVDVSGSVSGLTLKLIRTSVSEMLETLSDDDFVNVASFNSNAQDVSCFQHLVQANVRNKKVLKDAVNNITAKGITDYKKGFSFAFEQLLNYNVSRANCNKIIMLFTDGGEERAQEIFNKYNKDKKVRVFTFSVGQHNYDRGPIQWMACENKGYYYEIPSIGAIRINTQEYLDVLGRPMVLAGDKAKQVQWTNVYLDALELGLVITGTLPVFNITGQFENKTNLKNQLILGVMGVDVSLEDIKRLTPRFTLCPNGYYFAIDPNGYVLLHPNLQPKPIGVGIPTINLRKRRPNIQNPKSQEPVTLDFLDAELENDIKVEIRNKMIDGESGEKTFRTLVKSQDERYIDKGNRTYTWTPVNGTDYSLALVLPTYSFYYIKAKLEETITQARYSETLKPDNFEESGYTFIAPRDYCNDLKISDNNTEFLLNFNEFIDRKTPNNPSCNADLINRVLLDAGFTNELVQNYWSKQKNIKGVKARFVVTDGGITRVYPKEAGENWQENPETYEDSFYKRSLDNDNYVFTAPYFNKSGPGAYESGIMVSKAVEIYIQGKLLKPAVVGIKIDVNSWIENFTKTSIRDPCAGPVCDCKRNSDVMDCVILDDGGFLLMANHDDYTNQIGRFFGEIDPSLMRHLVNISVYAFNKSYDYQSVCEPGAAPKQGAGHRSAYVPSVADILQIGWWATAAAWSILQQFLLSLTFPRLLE
# Sequence (P54289 957-1103 partner limits assumed): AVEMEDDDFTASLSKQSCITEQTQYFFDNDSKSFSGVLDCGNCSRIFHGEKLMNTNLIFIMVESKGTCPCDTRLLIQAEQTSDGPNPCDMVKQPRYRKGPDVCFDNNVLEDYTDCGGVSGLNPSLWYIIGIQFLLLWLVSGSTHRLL
# assay remarks: Functional assay, antagonism of N-type calcium channel (FDSS calcium mobilization response to KCl depolarization)
# setup conditions: HEK stable cell line; 50 mM KCl depolarization; six-point concentration-response
quantity kind: IC50 (nM)

Look over these answered cases.
compound="CCCC(C)S(=O)(=O)N1Cc2nn(-c3ccc(C)cc3OC)c(-c3ccc(Cl)cc3)c2C1 (stereo not drawn)" test_target="N-type calcium channel α1B (Cav2.2), β3 and α2δ subunits (Homo sapiens, UniProt Q00975)" recorded_number=21
compound=CC(C)S(=O)(=O)N1Cc2nn(-c3cccc4c3OCC4)c(-c3ccc(Cl)cc3)c2C1 test_target="N-type calcium channel α1B (Cav2.2), β3 and α2δ subunits (Homo sapiens, UniProt Q00975)" recorded_number=10
compound=CCOc1ccccc1-n1nc2c(c1-c1ccc(Cl)cc1)CN(S(=O)(=O)C(C)C)C2 test_target="N-type calcium channel α1B (Cav2.2), β3 and α2δ subunits (Homo sapiens, UniProt Q00975)" recorded_number=3

I = COc1ccccc1-n1nc2c(c1-c1ccc(Cl)cc1)CN(S(=O)(=O)N1CCC(C)CC1)C2
II = COc1cc(F)ccc1-n1nc2c(c1-c1ccc(Cl)cc1)CN(S(=O)(=O)C(C)C)C2
III = COc1ccccc1-n1nc2c(c1-c1ccc(Cl)cc1)CN(S(=O)(=O)CCN1C(=O)c3ccccc3C1=O)C2
Challenge: Hi! Can you put these in order of IC50, lowest number first? Your task in answering is to list the labels in the requested order.
Response given: I, II, III
(I: 8 nM, II: 21 nM, III: 53 nM)
